# System: S. faecalis (MTCC- 0459)
metric_name: MIC (µg/mL)

>  <substance_smiles>
Cc1ccc(N=Nc2c(N)nn3c(-c4ccc(C)cc4)cc(-c4ccc(OCc5ccccc5)cc4)nc23)cc1

>  <recorded_measurement>
15.6

$$$$

1 = Cc1ccc(N=Nc2c(N)nn3c(-c4ccco4)cc(-c4ccc(OCc5ccccc5)cc4)nc23)cc1
2 = Cc1ccc(N=Nc2c(N)nn3c(-c4ccc(Cl)cc4Cl)cc(-c4ccc(OCc5ccccc5)cc4)nc23)cc1
Problem: Given the entries 1 and 2 , determine which has the lower reported MIC. Write the label of whichever entry you select.
2
(2: 7.81 µg/mL, 1: 15.6 µg/mL)
